testedTarget: Muscarinic acetylcholine receptor M3 (Homo sapiens)
Sequence (P20309 whole entry): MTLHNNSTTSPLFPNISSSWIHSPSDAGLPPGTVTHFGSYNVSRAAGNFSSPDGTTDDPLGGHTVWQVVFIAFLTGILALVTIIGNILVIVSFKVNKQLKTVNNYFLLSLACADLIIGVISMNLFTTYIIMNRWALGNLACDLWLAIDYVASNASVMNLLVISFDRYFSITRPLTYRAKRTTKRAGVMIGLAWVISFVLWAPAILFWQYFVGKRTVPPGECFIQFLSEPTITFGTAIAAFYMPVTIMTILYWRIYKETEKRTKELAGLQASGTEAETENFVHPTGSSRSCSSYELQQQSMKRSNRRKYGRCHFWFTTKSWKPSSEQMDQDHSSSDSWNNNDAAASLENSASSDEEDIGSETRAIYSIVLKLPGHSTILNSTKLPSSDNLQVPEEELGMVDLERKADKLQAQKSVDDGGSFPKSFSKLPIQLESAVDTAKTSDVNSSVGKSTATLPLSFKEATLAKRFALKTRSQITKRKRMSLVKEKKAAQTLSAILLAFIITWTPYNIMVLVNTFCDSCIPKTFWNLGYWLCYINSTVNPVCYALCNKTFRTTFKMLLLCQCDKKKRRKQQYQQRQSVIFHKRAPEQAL
readoutKind: Ki (nM)

> print(dat)
                               molecule                              testedtarget  readoutkind  measured
1        Cc1nccn1CC#CCN1OCCC1=O [NSC_0]  Muscarinic acetylcholine receptor M3 (Homo sapiens)           Ki       102
2          Cc1n(CC#CCN2OCCC2=O)cc[n+]1C  Muscarinic acetylcholine receptor M3 (Homo sapiens)           Ki      75.9
3                Cc1nccn1CC#CCOC1=NOCC1  Muscarinic acetylcholine receptor M3 (Homo sapiens)           Ki      2.51
4  Cc1n(CC#CCOC2=NOCC2)cc[n+]1C [NSC_0]  Muscarinic acetylcholine receptor M3 (Homo sapiens)           Ki      6.31
5                 Cc1nccn1CC#CCOc1ccon1  Muscarinic acetylcholine receptor M3 (Homo sapiens)           Ki       110
